Assay: Human HepG2 cell viability assay in 384 well format
Assay type: toxicity, cell-based
Parameters: dose 125 nL, time 70.5 hour; concentration not given beside the values
Conditions: HepG2 cells, read-out: Inhibition
observationType: cytotoxicity at 70.5 h (%)
Give just the number in %; leave the unit off.

The examples below pair each entry with its known result.
[[record]]
compound = "O=C(Nc1ccc(F)cc1)N1C[C@H]2C[C@H](C(=O)N3CCOCC3)[C@@H](C1)O2"
testresult = -1.46

[[record]]
compound = "Cc1nc(C(C)C)sc1C(=O)N(C)CCCc1cnn(C)c1"
testresult = -7.28

[[record]]
compound = "COc1cccc(CN(Cc2ncc[nH]2)Cc2ccco2)c1"
testresult = -2.53

[[record]]
compound = "CC(=O)NC1CCCN(Cc2csc(-c3ncccn3)n2)C1 (stereo unspecified)"
testresult = 18.7


Lab book: cytotoxicity at 70.5 h of `O=C(c1ccc(Cl)cc1)N1CCC(N2CCCNC2=O)CC1` noted as -6.78

Lab book: cytotoxicity at 70.5 h of CC(NCc1cnc(C2CCC2)s1)c1cccc(-n2ccnc2)c1 (stereo unspecified) noted as -5.22

Lab book: cytotoxicity at 70.5 h of `COc1cccc(CN2CCc3nc(C(N)=O)sc3CC2)c1` noted as -7.05

Lab book: cytotoxicity at 70.5 h of CC1(C)OCC(CNC(=O)c2cnn(-c3ccc(Cl)cc3)c2N)O1 (stereo unspecified) noted as 7.47

Lab book: cytotoxicity at 70.5 h of Cc1n[nH]c(C)c1CCC(=O)NCC1CCOc2ccccc2C1 (stereo unspecified) noted as 12.2

Lab book: cytotoxicity at 70.5 h of COC(=O)c1sccc1S(=O)(=O)NCC1(O)CCOc2ccccc21 (stereo unspecified) noted as -4.94

Lab book: cytotoxicity at 70.5 h of Cc1[nH]c(-c2ccccc2)nc1C(=O)N1CCc2[nH]cnc2C1C(=O)O (stereo unspecified) noted as -8.84

====

Catalogue of compounds with associated cytotoxicity at 70.5 h
Assay: Human HepG2 cell viability assay in 384 well format
Assay type: toxicity, cell-based
Design: dose 125 nL, time 70.5 hour; concentration not given beside the values
Details: HepG2 cells, read-out: Inhibition
Give just the number in %; leave the unit off.

The examples below pair each entry with its known result.
[[record]]
compound = "Fc1cnccc1CN1CCC2(CCNCC2)C1"
testresult = -10.4

[[record]]
compound = "Cn1cc(CNC2CCc3c(ccc(=O)n3Cc3cccnc3)C2)cn1 (configuration not stated)"
testresult = -14.4

[[record]]
compound = "CC(C)(C)OC(=O)Cn1nc(C2CC2)cc(C(F)(F)F)c1=O"
testresult = -2.4

[[record]]
compound = "O=C(C1CCCCC1)N1CCC2(CC1)CNCc1ccccc12"
testresult = 0.691

[[record]]
compound = "CCc1nnc(CN(CC)C(=O)C2CC(=O)N(C(C)(C)C)C2)o1 (configuration not stated)"
testresult = -4.84

[[record]]
compound = "CCc1sc(C(=O)Nc2cnn(CC(=O)NC3CC3)c2)cc1C"
testresult = -8.41

[[record]]
compound = "CC(=O)N1CC(=O)N(c2ccccc2)CC12CCN(Cc1nccs1)C2 (configuration not stated)"
testresult = -3.72

[[record]]
compound = "CN1CCN(C(=O)c2ccc3c(c2)[nH]c(=O)n3C2CCCC2)CC1"
testresult = 9.54

[[record]]
compound = "CCNc1ncc2c(n1)CN(c1ccc(CC)cc1)C2=O"
testresult = -8.79

[[record]]
compound = "CC(=O)N(Cc1c(F)cccc1F)C1CCCC1"
testresult = -6.67


# context switch: different compound, same cytotoxicity at 70.5 h
Lab book: cytotoxicity at 70.5 h of `Nc1ccnc(N2CCC(Cc3ccccc3Cl)(C(=O)O)CC2)n1` noted as 1.15

====

Catalogue of compounds with associated cytotoxicity at 70.5 h
Test: Human HepG2 cell viability assay in 384 well format
Format: toxicity, cell-based
Design: dose 125 nL, time 70.5 hour; concentration not given beside the values
Settings: HepG2 cells, read-out: Inhibition
Give just the number in %; leave the unit off.

[[record]]
chemicalsmiles = "O=C(NS(=O)(=O)c1ccc(F)c(F)c1)c1cscn1"
observationtype = "cytotoxicity at 70.5 h"
testresult = 17.8

[[record]]
chemicalsmiles = "Cc1cc(C)cc(CN2CCN(Cc3ccc4nonc4c3)CC2=O)c1"
observationtype = "cytotoxicity at 70.5 h"
testresult = -0.612

[[record]]
chemicalsmiles = "NC(=O)c1cnc(NC2CC2)nc1CCNC(=O)Cc1ccccc1"
observationtype = "cytotoxicity at 70.5 h"
testresult = -5.85

[[record]]
chemicalsmiles = "Cc1ccccc1C1(CNc2nnc(C)c(C)c2C#N)CCOCC1"
observationtype = "cytotoxicity at 70.5 h"
testresult = -6.42

[[record]]
chemicalsmiles = "CCOCCN1CCN([C@@H]2c3ccccc3C3(CCNCC3)[C@H]2O)CC1"
observationtype = "cytotoxicity at 70.5 h"
testresult = 28.9


# context switch: different compound, same cytotoxicity at 70.5 h
Lab book: cytotoxicity at 70.5 h of `COc1c(CNCc2ccc(CN3CCOCC3)cc2)c(C)nn1C` noted as 5.61

====

Assay: Human HepG2 cell viability assay in 384 well format
Type: toxicity, cell-based
Design: dose 125 nL, time 70.5 hour; concentration not given beside the values
Conditions: HepG2 cells, read-out: Inhibition
observationType: cytotoxicity at 70.5 h (%)
Give just the number in %; leave the unit off.

[[record]]
compound = "Cc1cccc(-n2nc(CC(C)C)nc2[C@H](C)O)c1"
testresult = 16.4

[[record]]
compound = "NC(=O)C1CCN(CC(=O)NCCc2c(F)cccc2F)CC1"
testresult = -7.99

[[record]]
compound = "c1cnc(N2CCO[C@H]3CN(Cc4csnn4)C[C@H]32)cn1"
testresult = -11.1

[[record]]
compound = "CNC(=O)[C@@H]1C[C@H](n2cc(-c3ccc(Cl)cc3)nn2)CN1"
testresult = -3.41

[[record]]
compound = "COc1cc(C)ccc1OCC(=O)Nc1ccnc(OCCN(C)C)c1"
testresult = 39.3

[[record]]
compound = "CCOCC(=O)NC(C#N)c1cnn(-c2ccccc2)c1 (stereo unspecified)"
testresult = -9.95

[[record]]
compound = "Cc1ccc(NS(=O)(=O)c2cnn(-c3ccccc3)c2)c(C(=O)O)c1"
testresult = -5.8

[[record]]
compound = "COCc1ccc(C(=O)N2CCN(CC(C)O)CC2)cc1 (stereo unspecified)"
testresult = -3.37

[[record]]
compound = "CCc1oc(C(=O)NCCSc2ncn[nH]2)cc1CN1CCCC1"
testresult = -9.51

[[record]]
compound = "CC(=O)N1CCCn2nc(CNc3cc(C)ncn3)cc2C1"
testresult = 15


# context switch: different compound, same cytotoxicity at 70.5 h
Lab book: cytotoxicity at 70.5 h of `CC(C)Nc1nc2c(cc1C(=O)O)CCN(Cc1ccsc1)CC2` noted as -6.73

====

Catalogue of compounds with associated cytotoxicity at 70.5 h
Test: Human HepG2 cell viability assay in 384 well format
Format: toxicity, cell-based
Design: dose 125 nL, time 70.5 hour; concentration not given beside the values
Conditions: HepG2 cells, read-out: Inhibition
Give just the number in %; leave the unit off.

The examples below pair each entry with its known result.
[[record]]
compound = "c1ncn(CC2CCCCN2Cc2noc(C3CC3)n2)n1 (centres undefined)"
observationtype = "cytotoxicity at 70.5 h"
testresult = 11.3

[[record]]
compound = "O=C1N(c2ccccc2)Cc2nc(=O)[nH]n21"
observationtype = "cytotoxicity at 70.5 h"
testresult = -27.8

[[record]]
compound = "CCc1nnc(NC(=O)c2ccc(C3CCCN3CC(C)C)s2)s1 (centres undefined)"
observationtype = "cytotoxicity at 70.5 h"
testresult = -2.96


Lab book: cytotoxicity at 70.5 h of `COc1cccc(CNc2c(C)nn(C(C)C)c2C)c1` noted as -2.2

Lab book: cytotoxicity at 70.5 h of `Cn1cc(S(=O)(=O)NCCc2ccsc2)cn1` noted as -6.26

Lab book: cytotoxicity at 70.5 h of `Cn1cnc2c1CCN(CCOc1ccc3c(c1)CCC(=O)N3)C2` noted as -12.1

Lab book: cytotoxicity at 70.5 h of CC1CCCN(Cc2cccc(C(=O)Nc3nccs3)c2)C1 (centres undefined) noted as -11.3

Lab book: cytotoxicity at 70.5 h of CC(C)c1ncc(CN2CCCC(CO)C2)cn1 (centres undefined) noted as -8.2

====

Assay: Human HepG2 cell viability assay in 384 well format
Assay type: toxicity, cell-based
Design: dose 125 nL, time 70.5 hour; concentration not given beside the values
Settings: HepG2 cells, read-out: Inhibition
Catalogue of molecules with associated cytotoxicity at 70.5 h
Give just the number in %; leave the unit off.

The examples below pair each entry with its known result.
[[record]]
molecule = "Cc1nc(C)n(CC2CCCN2Cc2cn3cc(Cl)ccc3n2)n1 (centres undefined)"
testresult = -1.76

[[record]]
molecule = "c1cncc(N2CCC3(CCCN(c4ccncc4)C3)CC2)c1"
testresult = -6.14

[[record]]
molecule = "O=C(NCCNC(=O)c1ccc(Br)cc1)c1ccc(O)cc1"
testresult = -11

[[record]]
molecule = "COc1ccc2cc(CNc3c(C)nn(C(C)C)c3C)ccc2c1"
testresult = -0.974

[[record]]
molecule = "CC(Cn1cccn1)NC(=O)NCCc1ccsc1 (centres undefined)"
testresult = 15.4

[[record]]
molecule = "CC(=O)N1N=C(COc2ccc(Cl)cc2)OC1c1ccccc1 (centres undefined)"
testresult = 17

[[record]]
molecule = "Cn1ccnc1CC1CCCN(C(=O)NCCOc2cccnc2)C1 (centres undefined)"
testresult = 1.38

[[record]]
molecule = "COCCNC(=O)c1cc(C)nc(C2CCN(C)CC2)n1"
testresult = -3.41

[[record]]
molecule = "O=C(NCCCO)Nc1ccccc1"
testresult = 3.04

[[record]]
molecule = "N#CCCN1CC(O)CN(C(=O)c2cccc(C(F)(F)F)c2)CC1=O (centres undefined)"
testresult = -1.43


Lab book: cytotoxicity at 70.5 h of `c1cc(CNCc2ccnc(N3CCCCC3)c2)c2c(c1)OCCCO2` noted as -10.6

Lab book: cytotoxicity at 70.5 h of `Cc1[nH]ccc1C(=O)Nc1cccc(CN2CCC(O)CC2)c1` noted as 1.4

Lab book: cytotoxicity at 70.5 h of `Cc1cc(-c2cnc(N3CCN(C)CC3)nc2-c2ccc(C)s2)on1` noted as 6.38

Lab book: cytotoxicity at 70.5 h of `Cc1noc([C@@H]2CCO[C@@H]3CCN(Cc4nccs4)C[C@@H]32)n1` noted as 9.78

Lab book: cytotoxicity at 70.5 h of `CN(Cc1ccco1)C(=O)Nc1ccc(=O)n(C)c1` noted as 0.639

Lab book: cytotoxicity at 70.5 h of O=C1CCCN1CC1CN(C(=O)N2CCOCC2)Cc2nccn2C1 (centres undefined) noted as -2.04

Lab book: cytotoxicity at 70.5 h of `Cn1c(-c2ccccc2Cl)nc2cc(C(=O)NCCOCCO)cnc21` noted as -6.61

Lab book: cytotoxicity at 70.5 h of CC(NCc1ccccc1CN1CCCC1=O)c1ccc(C#N)cc1 (centres undefined) noted as 4.5

Lab book: cytotoxicity at 70.5 h of `CN1CCN(C(=O)c2occc2CN2C(=O)Cc3ccccc32)CC1` noted as 16

Lab book: cytotoxicity at 70.5 h of Cc1ccc(OCCCNC(=O)C(C)Sc2nncn2C)cc1 (centres undefined) noted as -12.1

Lab book: cytotoxicity at 70.5 h of `O=C(CN1CCN(c2ccnc3c(F)ccc(F)c23)CC1)NC1CC1` noted as 0.111

Lab book: cytotoxicity at 70.5 h of COCC(C)NC(=O)CCCn1cnc2ccccc2c1=O (centres undefined) noted as -5.09

Lab book: cytotoxicity at 70.5 h of `O=C(N1CCCC1)N1CCC[C@]2(C[C@@H](OCc3ccncc3)CO2)C1` noted as -10.6

Lab book: cytotoxicity at 70.5 h of O=C(c1cnn(-c2ccccc2)n1)N1CCCC(n2cccn2)C1 (centres undefined) noted as -10.8
